biological target: panel of 442 kinases (Homo sapiens, UniProt P00533, G719C); construct: purchased KINOMEscan; format: binding; details: Compound Concentration 10 µM
Hi there, I'd appreciate the recorded KINOMEscan: EGFR(G719C) for every entry that follows.

KINOMEscan: EGFR(G719C) measured on COc1cc(C(=O)N2CCC(N3CCN(C)CC3)CC2)ccc1Nc1ncc2c(n1)N1CCc3cccc(c31)C(=O)N2C = 66

KINOMEscan: EGFR(G719C) measured on COc1cc(C(=O)N2CCC(N3CCN(C)CC3)CC2)ccc1Nc1ncc2c(n1)N(C1CCCC1)c1ccccc1C(=O)N2C = 71

KINOMEscan: EGFR(G719C) measured on COc1cc(C(=O)N2CCC(N3CCN(C)CC3)CC2)ccc1Nc1ncc2c(n1)N(C)c1ccccc1C(=O)N2C = 100

KINOMEscan: EGFR(G719C) measured on CCOc1cc(C(=O)N2CCC(N3CCN(C)CC3)CC2)ccc1Nc1ncc2c(n1)N(C1CCCC1)c1ccccc1C(=O)N2C = 100

###

molecular target: panel of 442 kinases (Homo sapiens, UniProt Q16816); construct: purchased KINOMEscan; format: binding; details: Compound Concentration 10 µM
Sequence (Q16816 whole entry): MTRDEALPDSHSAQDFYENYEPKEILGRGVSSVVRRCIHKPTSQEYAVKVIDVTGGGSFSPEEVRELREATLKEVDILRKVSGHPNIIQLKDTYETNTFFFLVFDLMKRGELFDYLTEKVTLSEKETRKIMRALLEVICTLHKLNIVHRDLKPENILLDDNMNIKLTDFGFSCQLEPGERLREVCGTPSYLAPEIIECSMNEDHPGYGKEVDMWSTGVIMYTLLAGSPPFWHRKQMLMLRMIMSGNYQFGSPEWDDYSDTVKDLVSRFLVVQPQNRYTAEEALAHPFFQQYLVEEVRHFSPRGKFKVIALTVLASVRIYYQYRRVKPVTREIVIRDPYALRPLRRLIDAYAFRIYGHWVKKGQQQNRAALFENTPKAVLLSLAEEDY
Assay Readout: KINOMEscan: PHKG1

KINOMEscan: PHKG1 measured on COc1cc(C(=O)N2CCC(N3CCN(C)CC3)CC2)ccc1Nc1ncc2c(n1)N(C1CCCC1)c1ccccc1C(=O)N2C = 100

KINOMEscan: PHKG1 measured on COc1cc(C(=O)N2CCC(N3CCN(C)CC3)CC2)ccc1Nc1ncc2c(n1)N1CCc3cccc(c31)C(=O)N2C = 75

KINOMEscan: PHKG1 measured on CCOc1cc(C(=O)N2CCC(N3CCN(C)CC3)CC2)ccc1Nc1ncc2c(n1)N(C1CCCC1)c1ccccc1C(=O)N2C = 100

KINOMEscan: PHKG1 measured on COc1cc(C(=O)N2CCC(N3CCN(C)CC3)CC2)ccc1Nc1ncc2c(n1)N(C)c1ccccc1C(=O)N2C = 54

###

molecular target: panel of 442 kinases (Homo sapiens, UniProt P51813); construct: purchased KINOMEscan; type: binding; set-up: unit: % Ctrl; details: Compound Concentration 10 µM
Sequence (P51813 whole entry): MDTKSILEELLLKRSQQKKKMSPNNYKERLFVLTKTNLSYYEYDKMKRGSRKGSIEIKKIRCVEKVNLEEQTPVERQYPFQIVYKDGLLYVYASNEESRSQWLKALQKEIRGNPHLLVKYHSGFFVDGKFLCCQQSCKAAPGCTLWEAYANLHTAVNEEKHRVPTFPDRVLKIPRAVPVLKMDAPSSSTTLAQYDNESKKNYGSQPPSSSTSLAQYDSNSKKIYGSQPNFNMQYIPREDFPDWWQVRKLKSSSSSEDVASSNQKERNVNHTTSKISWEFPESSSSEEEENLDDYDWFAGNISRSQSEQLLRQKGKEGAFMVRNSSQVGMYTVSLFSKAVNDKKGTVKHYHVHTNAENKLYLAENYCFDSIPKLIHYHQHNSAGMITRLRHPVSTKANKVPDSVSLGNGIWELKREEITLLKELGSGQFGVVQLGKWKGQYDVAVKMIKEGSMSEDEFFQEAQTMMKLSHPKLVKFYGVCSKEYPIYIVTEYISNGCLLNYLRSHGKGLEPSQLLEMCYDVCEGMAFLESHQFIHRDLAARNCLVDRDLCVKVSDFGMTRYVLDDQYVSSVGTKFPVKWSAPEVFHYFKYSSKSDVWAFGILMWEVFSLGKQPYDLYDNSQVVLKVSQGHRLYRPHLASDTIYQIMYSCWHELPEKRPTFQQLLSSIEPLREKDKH
Assay Readout: KINOMEscan: BMX
Respond numerically, and do not add a unit to the figure.

KINOMEscan: BMX measured on COc1cc(C(=O)N2CCC(N3CCN(C)CC3)CC2)ccc1Nc1ncc2c(n1)N1CCc3cccc(c31)C(=O)N2C = 71

KINOMEscan: BMX measured on COc1cc(C(=O)N2CCC(N3CCN(C)CC3)CC2)ccc1Nc1ncc2c(n1)N(C1CCCC1)c1ccccc1C(=O)N2C = 91

KINOMEscan: BMX measured on CCOc1cc(C(=O)N2CCC(N3CCN(C)CC3)CC2)ccc1Nc1ncc2c(n1)N(C1CCCC1)c1ccccc1C(=O)N2C = 100

KINOMEscan: BMX measured on COc1cc(C(=O)N2CCC(N3CCN(C)CC3)CC2)ccc1Nc1ncc2c(n1)N(C)c1ccccc1C(=O)N2C = 87

###

target: panel of 442 kinases (Homo sapiens); construct: purchased KINOMEscan; type: binding; details: Compound Concentration 10 µM
Assay Readout: KINOMEscan: ROCK2

Form field, KINOMEscan: ROCK2 with panel of 442 kinases (Homo sapiens), item COc1cc(C(=O)N2CCC(N3CCN(C)CC3)CC2)ccc1Nc1ncc2c(n1)N(C)c1ccccc1C(=O)N2C : 87

Form field, KINOMEscan: ROCK2 with panel of 442 kinases (Homo sapiens), item COc1cc(C(=O)N2CCC(N3CCN(C)CC3)CC2)ccc1Nc1ncc2c(n1)N1CCc3cccc(c31)C(=O)N2C : 65

Form field, KINOMEscan: ROCK2 with panel of 442 kinases (Homo sapiens), item COc1cc(C(=O)N2CCC(N3CCN(C)CC3)CC2)ccc1Nc1ncc2c(n1)N(C1CCCC1)c1ccccc1C(=O)N2C : 79

Form field, KINOMEscan: ROCK2 with panel of 442 kinases (Homo sapiens), item CCOc1cc(C(=O)N2CCC(N3CCN(C)CC3)CC2)ccc1Nc1ncc2c(n1)N(C1CCCC1)c1ccccc1C(=O)N2C : 83

###

Hi there, I'd appreciate the recorded KINOMEscan: MYLK2 for every entry that follows.
molecular target: panel of 442 kinases (Homo sapiens); construct: purchased KINOMEscan; type: binding; conditions: Compound Concentration 10 µM
Respond numerically, and do not add a unit to the figure.

KINOMEscan: MYLK2 measured on COc1cc(C(=O)N2CCC(N3CCN(C)CC3)CC2)ccc1Nc1ncc2c(n1)N(C)c1ccccc1C(=O)N2C = 98

KINOMEscan: MYLK2 measured on CCOc1cc(C(=O)N2CCC(N3CCN(C)CC3)CC2)ccc1Nc1ncc2c(n1)N(C1CCCC1)c1ccccc1C(=O)N2C = 100

KINOMEscan: MYLK2 measured on COc1cc(C(=O)N2CCC(N3CCN(C)CC3)CC2)ccc1Nc1ncc2c(n1)N1CCc3cccc(c31)C(=O)N2C = 85

KINOMEscan: MYLK2 measured on COc1cc(C(=O)N2CCC(N3CCN(C)CC3)CC2)ccc1Nc1ncc2c(n1)N(C1CCCC1)c1ccccc1C(=O)N2C = 100

###

Hi there, I'd appreciate the recorded KINOMEscan: MAP4K4 for every entry that follows.
biological target: panel of 442 kinases (Homo sapiens, UniProt O95819); construct: purchased KINOMEscan; type: binding; details: Compound Concentration 10 µM
Sequence (O95819 whole entry): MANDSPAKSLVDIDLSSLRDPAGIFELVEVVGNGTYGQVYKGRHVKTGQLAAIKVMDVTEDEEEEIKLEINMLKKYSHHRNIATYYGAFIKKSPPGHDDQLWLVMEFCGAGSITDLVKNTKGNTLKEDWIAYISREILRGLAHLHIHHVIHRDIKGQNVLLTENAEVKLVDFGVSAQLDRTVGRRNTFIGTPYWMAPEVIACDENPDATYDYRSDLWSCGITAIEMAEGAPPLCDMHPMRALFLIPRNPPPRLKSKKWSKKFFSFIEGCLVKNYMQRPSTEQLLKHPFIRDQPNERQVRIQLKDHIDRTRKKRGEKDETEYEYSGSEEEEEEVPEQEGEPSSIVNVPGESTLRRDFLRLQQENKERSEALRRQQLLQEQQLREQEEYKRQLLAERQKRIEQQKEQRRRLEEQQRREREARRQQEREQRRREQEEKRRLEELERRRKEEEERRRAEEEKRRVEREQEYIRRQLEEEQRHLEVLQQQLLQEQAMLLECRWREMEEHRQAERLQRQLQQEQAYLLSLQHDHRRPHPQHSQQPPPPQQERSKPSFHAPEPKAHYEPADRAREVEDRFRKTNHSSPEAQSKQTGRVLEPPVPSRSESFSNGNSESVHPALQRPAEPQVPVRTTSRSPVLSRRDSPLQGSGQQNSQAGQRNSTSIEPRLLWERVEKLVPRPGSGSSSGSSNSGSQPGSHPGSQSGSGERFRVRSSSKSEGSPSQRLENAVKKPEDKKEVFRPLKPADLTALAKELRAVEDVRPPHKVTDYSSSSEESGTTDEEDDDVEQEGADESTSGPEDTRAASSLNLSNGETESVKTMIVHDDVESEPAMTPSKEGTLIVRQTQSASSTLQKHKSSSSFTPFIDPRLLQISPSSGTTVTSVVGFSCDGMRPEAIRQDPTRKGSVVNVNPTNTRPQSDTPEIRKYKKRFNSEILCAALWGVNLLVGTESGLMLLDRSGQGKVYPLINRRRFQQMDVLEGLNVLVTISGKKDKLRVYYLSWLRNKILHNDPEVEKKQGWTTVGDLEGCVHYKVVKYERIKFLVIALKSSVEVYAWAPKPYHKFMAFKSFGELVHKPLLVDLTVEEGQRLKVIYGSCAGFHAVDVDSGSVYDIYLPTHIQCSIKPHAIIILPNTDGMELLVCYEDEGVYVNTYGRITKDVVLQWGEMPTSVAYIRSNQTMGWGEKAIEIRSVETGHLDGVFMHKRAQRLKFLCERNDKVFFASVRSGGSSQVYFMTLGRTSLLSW

KINOMEscan: MAP4K4 measured on COc1cc(C(=O)N2CCC(N3CCN(C)CC3)CC2)ccc1Nc1ncc2c(n1)N1CCc3cccc(c31)C(=O)N2C = 35

KINOMEscan: MAP4K4 measured on COc1cc(C(=O)N2CCC(N3CCN(C)CC3)CC2)ccc1Nc1ncc2c(n1)N(C)c1ccccc1C(=O)N2C = 85

KINOMEscan: MAP4K4 measured on COc1cc(C(=O)N2CCC(N3CCN(C)CC3)CC2)ccc1Nc1ncc2c(n1)N(C1CCCC1)c1ccccc1C(=O)N2C = 98

KINOMEscan: MAP4K4 measured on CCOc1cc(C(=O)N2CCC(N3CCN(C)CC3)CC2)ccc1Nc1ncc2c(n1)N(C1CCCC1)c1ccccc1C(=O)N2C = 96

###

biological target: panel of 442 kinases (Homo sapiens, UniProt P80192); construct: purchased KINOMEscan; assay type: binding; details: Compound Concentration 10 µM
Sequence (P80192 whole entry): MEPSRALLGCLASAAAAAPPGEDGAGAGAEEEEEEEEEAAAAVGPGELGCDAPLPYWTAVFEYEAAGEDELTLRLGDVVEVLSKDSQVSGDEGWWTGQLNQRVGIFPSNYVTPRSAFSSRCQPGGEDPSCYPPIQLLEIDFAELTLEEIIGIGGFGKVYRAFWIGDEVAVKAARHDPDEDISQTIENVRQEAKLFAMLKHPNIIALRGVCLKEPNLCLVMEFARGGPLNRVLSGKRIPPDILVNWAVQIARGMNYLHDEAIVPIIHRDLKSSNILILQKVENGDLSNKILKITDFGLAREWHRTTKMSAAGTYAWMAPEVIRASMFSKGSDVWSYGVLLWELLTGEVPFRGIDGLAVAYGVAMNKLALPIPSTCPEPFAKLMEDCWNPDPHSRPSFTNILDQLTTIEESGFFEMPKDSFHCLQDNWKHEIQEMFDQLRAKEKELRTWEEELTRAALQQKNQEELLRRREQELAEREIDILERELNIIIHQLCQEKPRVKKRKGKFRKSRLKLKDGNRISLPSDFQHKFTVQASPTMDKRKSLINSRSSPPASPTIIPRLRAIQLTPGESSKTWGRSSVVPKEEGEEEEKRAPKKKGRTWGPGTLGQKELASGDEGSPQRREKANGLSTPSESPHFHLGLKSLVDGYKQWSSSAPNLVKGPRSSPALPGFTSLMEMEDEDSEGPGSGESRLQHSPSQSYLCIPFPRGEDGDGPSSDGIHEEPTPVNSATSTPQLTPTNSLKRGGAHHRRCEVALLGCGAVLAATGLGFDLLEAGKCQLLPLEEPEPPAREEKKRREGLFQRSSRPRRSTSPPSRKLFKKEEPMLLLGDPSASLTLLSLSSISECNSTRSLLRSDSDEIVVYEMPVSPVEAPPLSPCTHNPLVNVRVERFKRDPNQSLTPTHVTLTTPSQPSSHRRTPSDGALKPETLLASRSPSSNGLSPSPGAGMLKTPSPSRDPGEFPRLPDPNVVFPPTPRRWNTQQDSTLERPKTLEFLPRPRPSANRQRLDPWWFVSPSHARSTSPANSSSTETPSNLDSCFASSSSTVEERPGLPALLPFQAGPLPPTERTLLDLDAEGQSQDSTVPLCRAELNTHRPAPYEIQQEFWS
Assay Readout: KINOMEscan: MLK1
Respond numerically, and do not add a unit to the figure.

Form field, KINOMEscan: MLK1 with panel of 442 kinases (Homo sapiens, UniProt P80192), item CCOc1cc(C(=O)N2CCC(N3CCN(C)CC3)CC2)ccc1Nc1ncc2c(n1)N(C1CCCC1)c1ccccc1C(=O)N2C : 100

Form field, KINOMEscan: MLK1 with panel of 442 kinases (Homo sapiens, UniProt P80192), item COc1cc(C(=O)N2CCC(N3CCN(C)CC3)CC2)ccc1Nc1ncc2c(n1)N1CCc3cccc(c31)C(=O)N2C : 85

Form field, KINOMEscan: MLK1 with panel of 442 kinases (Homo sapiens, UniProt P80192), item COc1cc(C(=O)N2CCC(N3CCN(C)CC3)CC2)ccc1Nc1ncc2c(n1)N(C)c1ccccc1C(=O)N2C : 93

Form field, KINOMEscan: MLK1 with panel of 442 kinases (Homo sapiens, UniProt P80192), item COc1cc(C(=O)N2CCC(N3CCN(C)CC3)CC2)ccc1Nc1ncc2c(n1)N(C1CCCC1)c1ccccc1C(=O)N2C : 100

###

molecular target: panel of 442 kinases (Homo sapiens, UniProt P00519, M351T); construct: purchased KINOMEscan; format: binding; parameters: unit: % Ctrl; details: Compound Concentration 10 µM
Assay Readout: KINOMEscan: ABL1(M351T)-phosphorylated
Respond numerically, and do not add a unit to the figure.

KINOMEscan: ABL1(M351T)-phosphorylated measured on CCOc1cc(C(=O)N2CCC(N3CCN(C)CC3)CC2)ccc1Nc1ncc2c(n1)N(C1CCCC1)c1ccccc1C(=O)N2C = 89

KINOMEscan: ABL1(M351T)-phosphorylated measured on COc1cc(C(=O)N2CCC(N3CCN(C)CC3)CC2)ccc1Nc1ncc2c(n1)N1CCc3cccc(c31)C(=O)N2C = 77

KINOMEscan: ABL1(M351T)-phosphorylated measured on COc1cc(C(=O)N2CCC(N3CCN(C)CC3)CC2)ccc1Nc1ncc2c(n1)N(C)c1ccccc1C(=O)N2C = 94

KINOMEscan: ABL1(M351T)-phosphorylated measured on COc1cc(C(=O)N2CCC(N3CCN(C)CC3)CC2)ccc1Nc1ncc2c(n1)N(C1CCCC1)c1ccccc1C(=O)N2C = 80

###

biological target: panel of 442 kinases (Homo sapiens, UniProt P54764); construct: purchased KINOMEscan; assay type: binding; conditions: Compound Concentration 10 µM
Sequence (P54764 20-986): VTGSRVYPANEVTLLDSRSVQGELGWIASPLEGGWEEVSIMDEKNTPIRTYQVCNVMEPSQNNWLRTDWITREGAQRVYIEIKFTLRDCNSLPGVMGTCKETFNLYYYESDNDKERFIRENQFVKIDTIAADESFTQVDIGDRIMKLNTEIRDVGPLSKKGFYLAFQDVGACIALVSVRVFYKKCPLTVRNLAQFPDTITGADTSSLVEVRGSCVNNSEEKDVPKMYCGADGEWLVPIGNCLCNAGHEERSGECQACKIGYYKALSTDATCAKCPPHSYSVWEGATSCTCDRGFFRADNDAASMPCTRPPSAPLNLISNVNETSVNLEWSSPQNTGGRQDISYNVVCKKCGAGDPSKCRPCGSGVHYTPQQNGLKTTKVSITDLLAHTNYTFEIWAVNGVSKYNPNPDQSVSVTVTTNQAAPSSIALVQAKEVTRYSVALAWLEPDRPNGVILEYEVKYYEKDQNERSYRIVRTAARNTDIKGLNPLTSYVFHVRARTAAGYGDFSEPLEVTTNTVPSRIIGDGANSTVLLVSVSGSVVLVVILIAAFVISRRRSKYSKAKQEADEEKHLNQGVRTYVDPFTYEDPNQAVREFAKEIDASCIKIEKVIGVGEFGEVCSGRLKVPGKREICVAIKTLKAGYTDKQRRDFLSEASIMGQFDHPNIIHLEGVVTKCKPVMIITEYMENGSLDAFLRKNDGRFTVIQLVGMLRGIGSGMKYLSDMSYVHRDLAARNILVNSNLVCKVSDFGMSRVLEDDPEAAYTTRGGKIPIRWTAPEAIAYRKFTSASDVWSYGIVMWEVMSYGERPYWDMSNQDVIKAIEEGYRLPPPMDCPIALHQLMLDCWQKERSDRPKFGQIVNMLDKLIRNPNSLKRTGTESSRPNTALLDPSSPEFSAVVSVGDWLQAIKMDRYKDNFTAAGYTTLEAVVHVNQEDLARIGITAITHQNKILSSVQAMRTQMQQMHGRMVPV
Assay Readout: KINOMEscan: EPHA4
Respond numerically, and do not add a unit to the figure.

KINOMEscan: EPHA4 measured on CCOc1cc(C(=O)N2CCC(N3CCN(C)CC3)CC2)ccc1Nc1ncc2c(n1)N(C1CCCC1)c1ccccc1C(=O)N2C [Compound 26] = 100

KINOMEscan: EPHA4 measured on COc1cc(C(=O)N2CCC(N3CCN(C)CC3)CC2)ccc1Nc1ncc2c(n1)N(C1CCCC1)c1ccccc1C(=O)N2C [Compound 25] = 100

KINOMEscan: EPHA4 measured on COc1cc(C(=O)N2CCC(N3CCN(C)CC3)CC2)ccc1Nc1ncc2c(n1)N(C)c1ccccc1C(=O)N2C [15 (LRRK2-IN-1)] = 89

KINOMEscan: EPHA4 measured on COc1cc(C(=O)N2CCC(N3CCN(C)CC3)CC2)ccc1Nc1ncc2c(n1)N1CCc3cccc(c31)C(=O)N2C [Compound 24] = 97

These entries and their values trace back to paper PMC3914206.
